Target: Melanocortin receptor 4 (Homo sapiens, UniProt P32245, L106P)
Sequence (P32245 whole entry L106P): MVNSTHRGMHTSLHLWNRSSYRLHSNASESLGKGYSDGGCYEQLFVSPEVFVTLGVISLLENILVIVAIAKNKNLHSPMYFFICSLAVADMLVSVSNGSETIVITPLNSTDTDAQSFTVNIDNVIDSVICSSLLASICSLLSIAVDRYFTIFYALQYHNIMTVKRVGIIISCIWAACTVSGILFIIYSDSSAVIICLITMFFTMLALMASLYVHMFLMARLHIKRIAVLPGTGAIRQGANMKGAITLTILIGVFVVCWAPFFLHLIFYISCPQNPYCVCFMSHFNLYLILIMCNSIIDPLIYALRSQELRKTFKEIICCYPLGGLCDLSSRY
Test: Agonist activity at human melanocortin-4 receptor L106P mutant expressed in HEK293 cells co-transfected with CRE/beta-galactosidase reporter gene assessed as stimulatory response after 6 hrs
Format: functional, cell-based
Where a SMILES comes first, the peptide text is derived from it. [ ]: non-standard residue; d: D form. dTic = O=C(O)[C@H]1Cc2ccccc2CN1
Catalogue of EC50 values
Please reply with the bare figure in nM and do not write the unit itself.

Compound	EC50, nM
CC(=O)N[C@@H](Cc1cnc[nH]1)C(=O)N[C@H](Cc1ccc(I)cc1)C(=O)N1Cc2ccccc2CC1C(=O)N[C@@H](Cc1ccc(I)cc1)C(N)=O (stereo partly drawn)	570

Returns the measured EC50 for the input compound. Input: CC(=O)N[C@@H](CCCNC(=N)N)C(=O)N[C@H](Cc1ccc(Cl)cc1)C(=O)N1Cc2ccccc2C[C@H]1C(=O)N1Cc2ccccc2C[C@H]1C(N)=O
2450

Returns the measured EC50 for the input compound. Input: CC(=O)N1Cc2ccccc2C[C@H]1C(=O)N[C@H](Cc1ccc(Cl)cc1)C(=O)N[C@@H](CCCNC(=N)N)C(=O)N1Cc2ccccc2C[C@H]1C(N)=O
15500

Returns the measured EC50 for the input compound. Input: CC(=O)N1Cc2ccccc2C[C@@H]1C(=O)N[C@H](Cc1ccccc1)C(=O)N[C@@H](CCCN=C(N)N)C(=O)N[C@@H](Cc1c[nH]c2ccccc12)C(N)=O (Ac-[dTic][dF]RW-NH2)
17900

Returns the measured EC50 for the input compound. Input: CC(=O)N[C@@H](CCCNC(=N)N)C(=O)N[C@H](Cc1ccc(I)cc1)C(=O)N[C@@H](CCCNC(=N)N)C(=O)N1Cc2ccccc2C[C@H]1C(N)=O
3170

Returns the measured EC50 for the input compound. Input: CC(=O)N[C@H](CCCNC(=N)N)C(=O)N[C@H](Cc1ccccc1)C(=O)N[C@@H](CCCNC(=N)N)C(=O)N[C@@H](Cc1c[nH]c2ccccc12)C(N)=O
1240

Returns the measured EC50 for the input compound. Input: CC(=O)N1Cc2ccccc2CC1C(=O)N[C@H](Cc1ccc(I)cc1)C(=O)N[C@@H](CCCNC(=N)N)C(=O)N[C@@H](Cc1ccc(I)cc1)C(N)=O (stereo partly drawn)
440

Returns the measured EC50 for the input compound. Input: CC(=O)N1Cc2ccccc2C[C@H]1C(=O)N[C@H](Cc1ccc(I)cc1)C(=O)N[C@@H](CCCNC(=N)N)C(=O)N1Cc2ccccc2C[C@H]1C(N)=O
2260
